Read-out: Cytochrome P450 3A7 (Homo sapiens) (UniProt P24462)
Sequence (P24462 whole entry, looked up): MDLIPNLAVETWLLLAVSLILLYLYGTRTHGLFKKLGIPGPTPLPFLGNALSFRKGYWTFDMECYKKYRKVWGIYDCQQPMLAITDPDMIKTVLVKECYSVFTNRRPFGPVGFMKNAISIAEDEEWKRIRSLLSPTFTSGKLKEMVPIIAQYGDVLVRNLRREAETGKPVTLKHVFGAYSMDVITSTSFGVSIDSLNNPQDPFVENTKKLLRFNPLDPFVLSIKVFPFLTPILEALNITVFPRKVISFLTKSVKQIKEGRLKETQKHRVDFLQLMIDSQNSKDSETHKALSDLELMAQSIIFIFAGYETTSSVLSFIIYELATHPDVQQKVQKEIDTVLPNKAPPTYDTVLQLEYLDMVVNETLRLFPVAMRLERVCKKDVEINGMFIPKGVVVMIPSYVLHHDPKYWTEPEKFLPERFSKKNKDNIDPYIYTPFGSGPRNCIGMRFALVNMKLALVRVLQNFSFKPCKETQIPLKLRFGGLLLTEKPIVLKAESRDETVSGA
assay-method-text: LTEA_HepaRG_CYP3A7: Life Technologies and Expression Analysis (LTEA) Assay for CYP3A7 using HepaRG (AID 2283492)
test-parameters: mRNA level, 48 h; actives raise or lower the signal
Calls of active or inactive are those of the source. The calls were made as follows: active = hit-call score of the fitted dose curve at least 0.9, where 1 is the maximum; inactive = score below 0.9.
Classes used: True (active), False (inactive)

compound=O=C(NS(=O)(=O)/C=C/c1ccccc1)c1ccc(F)cc1Cl category_label=True
compound=C=CCCCCCCCCC(=O)O category_label=False
compound=C=CC(=C)CCC=C(C)C category_label=False
compound=CC[C@H]1OC(=O)[C@H](C)[C@@H](O[C@H]2C[C@@](C)(OC)[C@@H](O)[C@H](C)O2)[C@H](C)[C@@H](O[C@@H]2O[C@H](C)C[C@H](N(C)C)[C@H]2O)[C@](C)(O)C[C@@H](C)C(=O)[C@H](C)[C@@H](O)[C@]1(C)O category_label=True
compound="CCOC(=O)c1ccc(C2CCC(NC[C@H](O)COc3ccc(O)c(NS(C)(=O)=O)c3)CC2)cc1 (stereo not given in full)" category_label=False

* * *

Read-out: matrix metalloproteinase-10 (MMP10), MMP10 (gene 4319)
assay-method-text: LTEA_HepaRG_MMP10: Life Technologies and Expression Analysis (LTEA) Assay for matrix metalloproteinase-10 (MMP10) using HepaRG (AID 2283517)
test-parameters: mRNA level, 48 h; actives raise or lower the signal
The source made the active and inactive calls. How the source made its calls: active means hit-call score of the fitted dose curve at least 0.9, where 1 is the maximum; inactive means score below 0.9.
Classes used: active, inactive

compound=CC(C)CCCCCCOC(=O)c1ccc(C(=O)OCCCCCCC(C)C)c(C(=O)OCCCCCCC(C)C)c1 category_label=inactive
compound=CC(C)=CCCC(C)=CC=O category_label=inactive
compound=C[C@](N)(Cc1ccc(O)c(O)c1)C(=O)O category_label=inactive
compound=Cn1c(=O)c2c(ncn2C)n(C)c1=O category_label=inactive
compound=COc1cccc(-c2ccc(/C=C\CN3CCCCCC3)cc2Cl)c1 category_label=active
compound=On1ccccc1=S category_label=inactive
compound=CCOCCO category_label=inactive
compound=CCC(C)(C)C(=O)O[C@H]1C[C@@H](C)C=C2C=C[C@H](C)[C@H](CC[C@@H]3C[C@@H](O)CC(=O)O3)[C@H]21 category_label=inactive
compound=CCN(C(=O)c1cc(C)cc(OC[C@H](C)Nc2ccncc2)c1)C(C)C category_label=active
compound=C1=CCCC=CCCC=CCC1 category_label=inactive
compound=Cc1ccc(C)c(O)c1 category_label=inactive
compound=COc1ccc(/C=C/S(=O)(=O)NC(=O)c2ccc(C)cc2Cl)cc1 category_label=inactive

* * *

Read-out: Keratin 19 (KRT19), KRT19 (gene 3880)
assay-method-text: LTEA_HepaRG_KRT19: Life Technologies and Expression Analysis (LTEA) Assay for Keratin 19 (KRT19) using HepaRG (AID 2283512)
test-parameters: mRNA level, 48 h; actives raise or lower the signal
The source made the active and inactive calls. How the source made its calls: active means hit-call score of the fitted dose curve at least 0.9, where 1 is the maximum; inactive means score below 0.9.
Classes used: active, inactive

molecule=C=CCCCCCCCCC(=O)O category_label=inactive
molecule="CC/C(=C\\C(=N/O)C(N)=O)C(C)[N+](=O)[O-] (stereo unspecified)" category_label=inactive
molecule="CC(O)CN(CCN(CC(C)O)CC(C)O)CC(C)O (stereo unspecified)" category_label=inactive
molecule="CCOC(=O)c1ccc(C2CCC(NC[C@H](O)COc3ccc(O)c(NS(C)(=O)=O)c3)CC2)cc1 (stereo partly specified)" category_label=active
molecule=Cc1c(-c2cccnc2)c2ccccc2n1CCCCC(=O)O category_label=inactive
molecule=CC(C)CCCCCCCOC(=O)CCCCC(=O)OCCCCCCCC(C)C category_label=inactive

* * *

assay-method-text: APR_HepG2_p53Act_24hr: Apredica 24-hour HepG2 Assay for p53 Activation (AID 2282913);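 also: p53 protein immunofluorescence averaged per cell in HepG2 with Hoechst nuclei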
test-parameters: high-content imaging, actives raise or lower the signal
Calls of active or inactive are those of the source. How the source made its calls: active means hit-call score of the fitted dose curve at least 0.9, where 1 is the maximum; inactive means score below 0.9.
Classes used: true (1) for active, false (0) for inactive

compound=CC1=CC(=O)CC(C)(C)C1 category_label="false (0)"
compound=O=C(CCCCCCCCc1cccnc1)N1CCC(C=C(c2ccccc2)c2ccccc2)CC1 category_label="false (0)"
compound=O=C(O)c1cccc(N(Cc2cccnc2)c2ccc(OC(F)F)c(OC(F)F)c2)c1 category_label="true (1)"
compound=C1N2CN3CN1CN(C2)C3 category_label="false (0)"
compound="CC(C)=CCCC(C)CCO (stereo unspecified)" category_label="false (0)"
compound=COCCOc1cc2cc(C(=O)NC3CCN(C(C)C)CC3)n(CC(=O)Nc3ccc(Cl)cn3)c2cn1 category_label="false (0)"

* * *

Read-out: flavin-containing dimethylaniline monooxygenases 3 (FMO3), FMO3 (gene 2328)
assay-method-text: LTEA_HepaRG_FMO3: Life Technologies and Expression Analysis (LTEA) Assay for flavin-containing dimethylaniline monooxygenases 3 (FMO3) using HepaRG (AID 2283453)
test-parameters: mRNA level, 48 h; actives raise or lower the signal
Calls of active or inactive are those of the source. How the source made its calls: active means hit-call score of the fitted dose curve at least 0.9, where 1 is the maximum; inactive means score below 0.9.
Classes used: active, inactive

compound="CC(C)CC(C)(O)C#CC(C)(O)CC(C)C (configuration not stated)" category_label=inactive
compound="COc1ccc(-n2nc(C(F)F)cc2-c2ccc(S(C)=O)cc2)cc1 (configuration not stated)" category_label=inactive
compound=C1=CCCC=CCCC=CCC1 category_label=inactive
compound="CC/C(=C\\C(=N/O)C(N)=O)C(C)[N+](=O)[O-] (configuration not stated)" category_label=inactive
compound=Clc1nc(Cl)c(Cl)c(Cl)c1Cl category_label=inactive
compound=O=C(O)c1cccc(N(Cc2cccnc2)c2ccc(OC(F)F)c(OC(F)F)c2)c1 category_label=inactive
compound=CCNc1ccccc1 category_label=inactive
compound="CNS(=O)(=O)c1cc(C(=O)N2CCC(CCN3C4CCC3CC(n3c(C)nc5ccccc53)C4)(c3cccc(F)c3)CC2)c(Cl)cc1F (configuration not stated)" category_label=active
compound=CC(C)=CCC/C(C)=C\CO category_label=inactive
compound=CC(C)=CCCC(C)=CC=O category_label=inactive
compound="CCOC(=O)COc1ccc2c(c1)CC(NCC(O)c1cccc(Cl)c1)CC2 (configuration not stated)" category_label=inactive
compound=CC(C)=CCC/C(C)=C/CO category_label=inactive
compound=O=C(O)c1cccc(Oc2ccccc2)c1 category_label=inactive
compound="CCOC(=O)c1ccc(C2CCC(NC[C@H](O)COc3ccc(O)c(NS(C)(=O)=O)c3)CC2)cc1 (some centres not stated)" category_label=inactive
compound=O=C(OC[C@H]1O[C@@H](OC(=O)c2cc(O)c(O)c(OC(=O)c3cc(O)c(O)c(O)c3)c2)[C@H](OC(=O)c2cc(O)c(O)c(OC(=O)c3cc(O)c(O)c(O)c3)c2)[C@@H](OC(=O)c2cc(O)c(O)c(OC(=O)c3cc(O)c(O)c(O)c3)c2)[C@@H]1OC(=O)c1cc(O)c(O)c(OC(=O)c2cc(O)c(O)c(O)c2)c1)c1cc(O)c(O)c(OC(=O)c2cc(O)c(O)c(O)c2)c1 category_label=active
compound=COc1cccc(-c2ccc(/C=C\CN3CCCCCC3)cc2Cl)c1 category_label=active
compound=CC1(C)C(=O)N(Br)C(=O)N1Br category_label=inactive
compound=O=C1CCCCCN1 category_label=inactive
compound=CCCCCCc1ccc(O)cc1O category_label=inactive
compound=CC(C)CCCCCCCOC(=O)CCCCC(=O)OCCCCCCCC(C)C category_label=inactive
compound=O=C(NS(=O)(=O)/C=C/c1ccccc1)c1ccc(F)cc1Cl category_label=inactive
compound=CCn1nc(Cc2ccccc2)cc1C1CCN(C[C@H]2C[C@H](N(C)[C@@H](C(=O)O)C(C)C)C[C@@H]2c2cccc(F)c2)CC1 category_label=active
compound=COC(=O)c1c(Cl)c(Cl)c(C(=O)OC)c(Cl)c1Cl category_label=inactive
compound=CCCCCCCCCCCCCCCO category_label=inactive
compound="O=C1OC(=O)C2C3C=CC(C3)C12 (configuration not stated)" category_label=inactive
compound=CCOc1cccc(-n2cc(C(=O)N3CCN(c4cc(C(=O)O)c5ccccc5c4)CC3)nc2-c2ccc(C)cc2)c1 category_label=active
compound=CC1=CC(=O)CC(C)(C)C1 category_label=inactive
compound=CCCCCCCCO category_label=inactive
compound=C1N2CN3CN1CN(C2)C3 category_label=inactive
compound=Cc1ccc(N)cc1O category_label=inactive
compound=O=C(O)CCN(C1(C(=O)NO)CCCC1)S(=O)(=O)c1ccc(Oc2ccc(F)cc2)cc1 category_label=inactive
compound=Cc1ccc(S(=O)(=O)O)cc1C category_label=inactive
compound=CCC(C)(C)C(=O)O[C@H]1C[C@@H](C)C=C2C=C[C@H](C)[C@H](CC[C@@H]3C[C@@H](O)CC(=O)O3)[C@H]21 category_label=inactive
compound=Nc1cccc(N)c1 category_label=inactive
compound=CN(C)c1ccc(N=NS(=O)(=O)O)cc1 category_label=inactive
compound=Nc1ccc(Nc2ccccc2)cc1 category_label=active
compound="O=c1[nH]c2ccc(S(=O)CCN3CCC(Cc4ccc(F)cc4)CC3)cc2o1 (configuration not stated)" category_label=active
compound=CC(C)(O)c1coc(S(=O)(=O)NC(=O)Nc2c3c(cc4c2CCC4)CCC3)c1 category_label=inactive
compound=CC(=O)c1ccc2c(c1)[C@H](NC(=O)c1ccc(F)cc1)[C@@H](O)C(C)(C)O2 category_label=inactive
compound=CN(C)c1ccc(Cc2ccc(N(C)C)cc2)cc1 category_label=active
compound=CCOC(=O)CC(CC(=O)OCC)(OC(C)=O)C(=O)OCC category_label=inactive
compound=CCCC(=O)OCC category_label=inactive
compound=CC(C)c1cccc(C(C)C)c1N1C(=O)c2ccc(O)cc2C1=O category_label=active
compound=On1ccccc1=S category_label=inactive
compound=Nc1nc2ncc(CNc3ccc(C(=O)N[C@@H](CCC(=O)O)C(=O)O)cc3)nc2c(=O)[nH]1 category_label=inactive
compound=COCCOCCOCCOC category_label=inactive
compound=Cc1ccc(C)c(O)c1 category_label=inactive
